pKd: −log10 of the molar value.
Let's go through some recorded pKd values for Heat shock cognate 71 kDa protein (Homo sapiens, UniProt P11142) together.
Parameter: pKd

chemical_smiles=CCn1c(=O)/c(=C2\Sc3ccc(Cl)cc3N2C)s/c1=C\c1cccc[n+]1CCCCCCNC(=O)CCCC[C@@H]1SC[C@@H]2NC(=O)N[C@@H]21 parameter=pKd reported=5.40
chemical_smiles=CCn1c(=O)/c(=C2\Sc3ccc(F)cc3N2C)s/c1=C\c1cccc[n+]1CCCCCCNC(=O)CCCC[C@@H]1SC[C@@H]2NC(=O)N[C@@H]21 parameter=pKd reported=5.64
chemical_smiles=CCn1c(=O)/c(=C2\Sc3cc(OC)ccc3N2C)s/c1=C\c1cccc[n+]1CCCCCCNC(=O)CCCC[C@@H]1SC[C@@H]2NC(=O)N[C@@H]21 parameter=pKd reported=5.27
chemical_smiles=CCn1c(=O)/c(=C2\Sc3cc(F)ccc3N2C)s/c1=C\c1cccc[n+]1CCCCCCNC(=O)CCCC[C@@H]1SC[C@@H]2NC(=O)N[C@@H]21 parameter=pKd reported=5.82
